Below, each entry is listed alongside its reported IC50.
# SYSTEM TESTED: wild type Kit (Homo sapiens (Human), UniProt P10721)
# Sequence (P10721 26-976): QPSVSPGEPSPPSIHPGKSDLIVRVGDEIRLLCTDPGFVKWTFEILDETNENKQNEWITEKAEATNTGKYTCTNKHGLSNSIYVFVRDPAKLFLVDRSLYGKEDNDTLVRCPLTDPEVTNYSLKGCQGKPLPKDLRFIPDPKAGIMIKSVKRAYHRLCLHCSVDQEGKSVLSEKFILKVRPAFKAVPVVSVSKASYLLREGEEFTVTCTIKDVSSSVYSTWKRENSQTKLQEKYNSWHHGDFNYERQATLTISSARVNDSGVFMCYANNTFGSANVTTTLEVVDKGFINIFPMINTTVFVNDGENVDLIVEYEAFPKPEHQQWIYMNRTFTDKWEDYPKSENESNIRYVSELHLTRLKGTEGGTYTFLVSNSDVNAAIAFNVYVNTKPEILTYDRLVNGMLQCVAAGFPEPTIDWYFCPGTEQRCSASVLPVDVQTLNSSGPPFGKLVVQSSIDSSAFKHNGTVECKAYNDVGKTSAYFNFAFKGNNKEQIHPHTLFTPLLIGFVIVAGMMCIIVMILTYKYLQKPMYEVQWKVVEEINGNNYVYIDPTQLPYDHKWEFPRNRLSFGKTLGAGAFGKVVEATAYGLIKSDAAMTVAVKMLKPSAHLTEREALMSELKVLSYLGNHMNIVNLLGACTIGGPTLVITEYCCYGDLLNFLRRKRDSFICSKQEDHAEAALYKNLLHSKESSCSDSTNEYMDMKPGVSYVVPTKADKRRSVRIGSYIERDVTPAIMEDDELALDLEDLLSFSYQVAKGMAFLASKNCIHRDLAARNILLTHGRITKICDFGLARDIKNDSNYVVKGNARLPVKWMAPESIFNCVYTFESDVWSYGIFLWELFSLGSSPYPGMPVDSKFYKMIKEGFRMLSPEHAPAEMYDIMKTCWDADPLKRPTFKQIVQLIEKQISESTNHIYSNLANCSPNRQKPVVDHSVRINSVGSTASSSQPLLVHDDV
# MEASUREMENT PROTOCOL: Kit wild type assay at Km (Caliper electrophoretic mobility shift)
# Format: biochemical
# CONDITION SET: wild type Kit 2 nM, 400 uM ATP (Km), 1 uM Srctide, 25 C, 90 minutes; read-out: INH-KITWT ENZ-KM IC50 (nM) (Num)

# COMPOUND, SYSTEM TESTED, IC50
rows = [
    ("COc1cc2ncnc(N3CCN(c4ncc(Cc5ccccc5)cn4)CC3)c2cc1OC1CCNCC1 [Compound 91]", "wild type Kit (Homo sapiens (Human), UniProt P10721)", "11 to 100 nM"),
    ("COc1cc2ncnc(N3CCN(c4ncc(Cc5ccccc5)cn4)CC3)c2cc1C(N)=O [Compound 20]", "wild type Kit (Homo sapiens (Human), UniProt P10721)", "> 1000 nM"),
    ("COc1cc2ncnc(N3CCN(c4ncc(Nc5ccc(F)cc5)cn4)CC3)c2cc1OC [Compound 42]", "wild type Kit (Homo sapiens (Human), UniProt P10721)", "100 to 1000 nM"),
    ("CN1CCC(COc2ccc3ncnc(N4CCN(c5ncc(Cc6ccccc6)c(=O)[nH]5)CC4)c3c2)CC1 [Compound 100]", "wild type Kit (Homo sapiens (Human), UniProt P10721)", "100 to 1000 nM"),
    ("COc1cc2ncnc(N3CCN(c4ncc(Cc5ccc(C(C)(C)C)cc5)cn4)CC3)c2cc1OC [Compound 81]", "wild type Kit (Homo sapiens (Human), UniProt P10721)", "> 1000 nM"),
    ("COc1cc2c(N3CCN(c4ncc(Cc5ccccc5)cn4)CC3)ncnc2cc1OCC1(C)COC1 [Compound 93]", "wild type Kit (Homo sapiens (Human), UniProt P10721)", "11 to 100 nM"),
    ("CCOc1cc2ncnc(N3CCN(c4ncc(Cc5ccccc5)c(=O)[nH]4)CC3)c2cc1OCC1CCN(C)CC1 [Compound 138]", "wild type Kit (Homo sapiens (Human), UniProt P10721)", "< 10 nM"),
    ("COc1cc2ncnc(N3CCN(c4ncc(Cc5ccccc5)cn4)CC3)c2cc1OCC1CNCCO1 (centres unmarked) [Compound 105]", "wild type Kit (Homo sapiens (Human), UniProt P10721)", "11 to 100 nM"),
    ("COc1cc2ncnc(N3CCN(c4ncc(Cc5ccccc5)cn4)CC3)c2cc1OCC1CCNC(=O)C1 (centres unmarked) [Compound 109]", "wild type Kit (Homo sapiens (Human), UniProt P10721)", "11 to 100 nM"),
    ("COc1cc2ncnc(N3CCN(c4ncc(OCc5ccccc5C)cn4)CC3)c2cc1OC [Compound 65]", "wild type Kit (Homo sapiens (Human), UniProt P10721)", "> 1000 nM"),
    ("COc1cc2ncnc(N3CCN(c4ncc(Cc5ccc(F)cc5)cn4)CC3)c2cc1OC [Compound 38]", "wild type Kit (Homo sapiens (Human), UniProt P10721)", "11 to 100 nM"),
    ("COc1cc2ncnc(N3CCN(c4ncc(Cc5ccccc5)cn4)CC3)c2cc1OCC1CN(C)C1 [Compound 90]", "wild type Kit (Homo sapiens (Human), UniProt P10721)", "11 to 100 nM"),
    ("COc1cc2ncnc(N3CCN(c4ncc(Cc5ccccc5)cn4)CC3)c2cc1OC1CCN(CCO)CC1 [Compound 129]", "wild type Kit (Homo sapiens (Human), UniProt P10721)", "11 to 100 nM"),
    ("COc1cc2ncnc(N3CCN(c4ncc(Cc5ccc(OC(F)F)cc5)cn4)CC3)c2cc1OC [Compound 86]", "wild type Kit (Homo sapiens (Human), UniProt P10721)", "100 to 1000 nM"),
    ("COc1cc2ncnc(N3CCN(c4ncc(Cc5ccccc5)cn4)CC3)c2cc1OC[C@H]1CCCN(C)C1 [Compound 115]", "wild type Kit (Homo sapiens (Human), UniProt P10721)", "11 to 100 nM"),
    ("COc1cc2ncnc(N3CCN(c4ncc(O[C@@H](C)c5ccccc5)cn4)CC3)c2cc1OC [Compound 64]", "wild type Kit (Homo sapiens (Human), UniProt P10721)", "> 1000 nM"),
    ("COc1cc2ncnc(N3CCN(c4ncc(Cc5ccccc5)cn4)CC3)c2cc1OCC1CCNC1 (centres unmarked) [Compound 89]", "wild type Kit (Homo sapiens (Human), UniProt P10721)", "11 to 100 nM"),
    ("COc1cc2ncnc(N3CCN(c4ncc(OC(C)c5ccccc5)cn4)CC3)c2cc1OC (centres unmarked) [Compound 63]", "wild type Kit (Homo sapiens (Human), UniProt P10721)", "100 to 1000 nM"),
    ("CCOc1cc2ncnc(N3CCN(c4ncc(Cc5ccccc5)cn4)CC3)c2cc1OCC1CCN(C)CC1 [Compound 122]", "wild type Kit (Homo sapiens (Human), UniProt P10721)", "< 10 nM"),
    ("COc1cc2ncnc(N3CCN(c4ncc(Cc5ccccc5)cn4)C(=O)C3)c2cc1OC [Compound 21]", "wild type Kit (Homo sapiens (Human), UniProt P10721)", "> 1000 nM"),
    ("COc1cc2ncnc(N3CCN(c4ncc(Cc5ccccc5)cn4)CC3)c2cc1OC[C@H]1CNCCO1 [Compound 104]", "wild type Kit (Homo sapiens (Human), UniProt P10721)", "11 to 100 nM"),
    ("COc1cc2ncnc(N3CCN(c4nccc(Cc5ccccc5)n4)CC3)c2cc1OC [Compound 12]", "wild type Kit (Homo sapiens (Human), UniProt P10721)", "> 1000 nM"),
    ("COc1cc2ncnc(N3C[C@H]4CC[C@@H](C3)N4c3ncc(Cc4ccccc4)cn3)c2cc1OC [Compound 48]", "wild type Kit (Homo sapiens (Human), UniProt P10721)", "11 to 100 nM"),
    ("COc1cc2ncnc(N3CCN(c4ncc(OCC5CC5)cn4)CC3)c2cc1OC [Compound 6]", "wild type Kit (Homo sapiens (Human), UniProt P10721)", "> 1000 nM"),
    ("COc1ccc2ncnc(N3CCN(c4ncc(Cc5ccccc5)cn4)CC3)c2c1 [Compound 5]", "wild type Kit (Homo sapiens (Human), UniProt P10721)", "100 to 1000 nM"),
    ("COc1cc2ncnc(N3CCN(c4ncc(OCc5ccc(C#N)cc5)cn4)CC3)c2cc1OC [Compound 73]", "wild type Kit (Homo sapiens (Human), UniProt P10721)", "> 1000 nM"),
    ("COc1cc2ncnc(N3CCN(c4ncc(Cc5cccc(OC(F)(F)F)c5)cn4)CC3)c2cc1OC [Compound 101]", "wild type Kit (Homo sapiens (Human), UniProt P10721)", "100 to 1000 nM"),
    ("COc1ccc2c(N3CCN(c4ncc(OCc5ccccc5)cn4)CC3)ncnc2c1 [Compound 8]", "wild type Kit (Homo sapiens (Human), UniProt P10721)", "> 1000 nM"),
    ("COc1cc2ncnc(N3CCN(c4ncc(N(C)Cc5ccccc5)cn4)CC3)c2cc1OC [Compound 52]", "wild type Kit (Homo sapiens (Human), UniProt P10721)", "11 to 100 nM"),
    ("COc1cc2ncnc(N3CCN(c4ncc(Cc5ccccc5)cn4)CC3)c2cc1OCC1CCCN(C)C1 (centres unmarked) [Compound 114]", "wild type Kit (Homo sapiens (Human), UniProt P10721)", "11 to 100 nM"),
    ("COc1cc2ncnc(N3CCN(c4ncc(Cc5ccccc5)c(N)n4)CC3)c2cc1OC[C@@H]1CCCN(C)C1 [Compound 124]", "wild type Kit (Homo sapiens (Human), UniProt P10721)", "< 10 nM"),
    ("COc1cc2ncnc(N3CCN(c4ncc(Cc5ccccc5)cn4)CC3)c2cc1OCCCN1CCN(C)CC1 [Compound 136]", "wild type Kit (Homo sapiens (Human), UniProt P10721)", "11 to 100 nM"),
]

* * *

# SYSTEM TESTED: wild type Kit (Homo sapiens (Human), UniProt P10721)
# MEASUREMENT PROTOCOL: Kit wild type assay at Km (Caliper electrophoretic mobility shift)
# Format: biochemical
# CONDITION SET: wild type Kit 2 nM, 400 uM ATP (Km), 1 uM Srctide, 25 C, 90 minutes; read-out: INH-KITWT ENZ-KM IC50 (nM) (Num)
Below, each entry is listed alongside its reported IC50.

# COMPOUND, IC50
data = [
    ("CCOc1cc2ncnc(N3CCN(c4ncc(Cc5ccccc5)c(N)n4)CC3)c2cc1OCC1CCN(C)CC1", "< 10 nM"),
    ("COc1cc2ncnc(N3CCN(c4ncc(Cc5ccccc5)c(=O)[nH]4)CC3)c2cc1OCC1CN(C)CCO1 (centres unmarked)", "< 10 nM"),
    ("COc1cc2ncnc(N3CCN(c4ncc(Cc5ccccc5)c(N)n4)CC3)c2cc1OC", "< 10 nM"),
    ("COc1cc2ncnc(N3CCN(c4ncc(CCc5ccccc5)cn4)CC3)c2cc1OC", "100 to 1000 nM"),
    ("COc1cc2ncnc(N3CC4CCC(C3)N4c3ncc(Cc4ccccc4)cn3)c2cc1OCC1CNCCO1 (centres unmarked)", "11 to 100 nM"),
    ("COc1cc2ncnc(N3CCN(c4ncc(Cc5ccccc5)cn4)CC3)c2cc1OCC1CCCNC1 (centres unmarked)", "11 to 100 nM"),
    ("COc1cc2ncnc(N3CCN(c4ncc(Nc5ccc(F)cc5)cn4)CC3)c2cc1OCC1CCN(C)CC1", "11 to 100 nM"),
    ("COc1cc2ncnc(N3CCN(c4ncc(N5CCCc6ccccc65)cn4)CC3)c2cc1OC", "100 to 1000 nM"),
    ("c1ccc(Cc2cnc(N3CCN(c4ncnc5[nH]cnc45)CC3)nc2)cc1", "> 1000 nM"),
    ("COc1cc2ncnc(N3CCN(c4ncc(OCc5ccc(C)cc5)cn4)CC3)c2cc1OC", "> 1000 nM"),
    ("COc1cc2ncnc(N3CCN(c4ncc(Cc5ccccc5)cn4)CC3)c2cc1OCC1CN(C)CCO1 (centres unmarked)", "11 to 100 nM"),
    ("COc1cc2ncnc(N3CCN(c4ncc(Cc5ccccc5)c(=O)[nH]4)CC3)c2cc1OCC1CCN(C)CC1", "< 10 nM"),
    ("COc1cc2ncnc(N3CCN(c4ncc(Nc5ccc(F)c(F)c5)cn4)CC3)c2cc1OC", "100 to 1000 nM"),
    ("COc1cc2ncnc(N3CCN(c4ncc(Nc5cccnc5)cn4)CC3)c2cc1OC", "100 to 1000 nM"),
    ("COc1cc2ncnc(N3CCN(c4ncc(Cc5ccccc5)cn4)CC3)c2cc1OCCN1CCNCC1", "11 to 100 nM"),
    ("COc1cc2ncnc(N3CCN(c4ncc(C(=O)Nc5ccccc5)cn4)CC3)c2cc1OC", "> 1000 nM"),
    ("COc1cc2ncnc(N3CCN(c4ncc(Cc5ccccc5)cn4)CC3)c2cc1OC1CCN(C)CC1", "11 to 100 nM"),
    ("COc1cc2c(N3CCN(c4ncc(Cc5ccccc5)cn4)CC3)ncnc2cc1OCC(O)CO (centres unmarked)", "11 to 100 nM"),
    ("COc1cc2ncnc(N3CCN(c4ncc(OCc5ccc(C(F)(F)F)cc5)cn4)CC3)c2cc1OC", "> 1000 nM"),
    ("COc1cc2ncnc(N3CCN(c4ncc(Cc5ccccc5)cn4)CC3)c2cc1OCC1CCN(C)C1 (centres unmarked)", "11 to 100 nM"),
    ("COc1cc2ncnc(N3CCN(c4ncc(Nc5ccc(C(C)(C)C)cc5)cn4)CC3)c2cc1OC", "> 1000 nM"),
    ("COc1cc2ncnc(N3CCN(c4ncc(OCc5ccccc5)cn4)[C@H](C)C3)c2cc1OC", "100 to 1000 nM"),
    ("COc1cc2ncnc(N3CCN(c4ncc(NC(C)c5ccccc5)cn4)CC3)c2cc1OC (centres unmarked)", "> 1000 nM"),
    ("COc1cc2ncnc(N3CCN(c4ncc(OCc5cccs5)cn4)CC3)c2cc1OC", "100 to 1000 nM"),
    ("COc1cc2ncnc(N3CCN(c4ncc(Nc5ccccc5)cn4)CC3)c2cc1OC", "100 to 1000 nM"),
    ("COc1cc2ncnc(N3CCN(c4ncc(S(=O)(=O)c5ccccc5)cn4)CC3)c2cc1OC", "> 1000 nM"),
    ("COc1cc2ncnc(N3CCN(c4ncc(Cc5ccccc5)cn4)CC3)c2cc1OCC1CCNCC1", "11 to 100 nM"),
    ("COc1cc2ncnc(N3CCN(c4ncc(OCc5ccccc5)cn4)CC3)c2cc1OC", "100 to 1000 nM"),
    ("COc1cc2ncnc(N3CCN(c4ncc(OCc5ccsc5)cn4)CC3)c2cc1OC", "100 to 1000 nM"),
    ("COc1cc2ncnc(N3CCN(c4ncc(NC(=O)Cc5ccccc5)cn4)CC3)c2cc1OC", "100 to 1000 nM"),
    ("COc1cc2ncnc(N3CCN(c4ncc(Br)c(OC)n4)CC3)c2cc1OC", "> 1000 nM"),
    ("COc1cc2ncnc(N3CCN(c4ncc(Cc5ccccc5)cn4)C(C)C3)c2cc1OC (centres unmarked) [Compound 23]", "11 to 100 nM"),
]
